All figures here come from ChEMBL document CHEMBL1135282.

Catalogue of compounds with associated pIC50
target: Neuropeptide Y receptor type 5 (Homo sapiens); assay: Tested for the inhibition of [125I]PYY binding to HEK 293 cells stably expressed with human neuropeptide NPY Y5 receptor; type: cell-based, HEK293
pIC50: −log10 of the molar value.
reportedEndpoint: pIC50

1. O=C(Nc1ccc(Cl)c2ccccc12)C1CCN(C(=O)Cn2c(=O)sc3ccc(Cl)cc32)CC1 [FR-236478] = 9.64
2. O=C(Nc1ccccc1)C1CCN(C(=O)Cn2c(=O)sc3ccc(Cl)cc32)CC1 [FR-235656] = 8.36

----------
Target: Neuropeptide Y receptor type 5 (Homo sapiens)
Sequence (whole entry): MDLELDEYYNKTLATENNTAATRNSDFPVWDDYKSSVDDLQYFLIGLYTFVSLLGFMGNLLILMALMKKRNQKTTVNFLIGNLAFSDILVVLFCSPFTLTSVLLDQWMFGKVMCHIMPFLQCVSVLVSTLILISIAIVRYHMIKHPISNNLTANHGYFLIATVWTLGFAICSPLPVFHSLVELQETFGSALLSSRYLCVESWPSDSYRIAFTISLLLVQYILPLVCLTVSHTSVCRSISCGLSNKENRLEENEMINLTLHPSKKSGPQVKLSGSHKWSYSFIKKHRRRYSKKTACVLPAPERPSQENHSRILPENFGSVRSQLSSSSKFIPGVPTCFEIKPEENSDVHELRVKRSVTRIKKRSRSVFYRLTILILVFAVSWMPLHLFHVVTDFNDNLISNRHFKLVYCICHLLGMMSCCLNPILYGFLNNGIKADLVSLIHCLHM
Assay: Tested for the inhibition of [125I]PYY binding to HEK 293 cells stably expressed with human neuropeptide NPY Y5 receptor at a concentration of 10e-7 M
Type: cell-based
Conditions: HEK293
Threshold check on inhibition: at or above 90% gives 1 (yes), strictly below gives 0 (no).

1. O=C(Nc1ccc(F)c(C(F)(F)F)c1)C1CCN(C(=O)Cn2c(=O)sc3ccc(Cl)cc32)CC1 = 1 (yes)
2. O=C(NCC(O)c1ccccc1)C1CCN(C(=O)Cn2c(=O)sc3ccc(Cl)cc32)CC1 (centres undefined) = 1 (yes)
3. Cc1cccc(O)c1NC(=O)C1CCN(C(=O)Cn2c(=O)sc3ccc(Cl)cc32)CC1 = 0 (no)
4. CN(CCc1ccccn1)C(=O)C1CCN(C(=O)Cn2c(=O)sc3ccc(Cl)cc32)CC1 = 0 (no)
5. O=C(Nc1nc2cc(Cl)ccc2o1)C1CCN(C(=O)Cn2c(=O)sc3ccc(Cl)cc32)CC1 = 1 (yes)
6. O=C(Nc1cccc2ccccc12)C1CCN(C(=O)Cn2c(=O)sc3ccc(Cl)cc32)CC1 = 1 (yes)
7. O=C(Cn1c(=O)sc2ccc(Cl)cc21)N1CCC(C(=O)N2CCCc3ccccc32)CC1 = 0 (no)
8. Cc1ccc2nc(NC(=O)C3CCN(C(=O)Cn4c(=O)sc5ccc(Cl)cc54)CC3)sc2c1 = 0 (no)
9. CCCCCCCCCCNC(=O)C1CCN(C(=O)Cn2c(=O)sc3ccc(Cl)cc32)CC1 = 1 (yes)
10. O=C(c1ccccc1)c1cccc(NC(=O)C2CCN(C(=O)Cn3c(=O)sc4ccc(Cl)cc43)CC2)c1 = 1 (yes)
11. CC(=O)c1cccc(NC(=O)C2CCN(C(=O)Cn3c(=O)sc4ccc(Cl)cc43)CC2)c1 = 1 (yes)
12. COCCNC(=O)C1CCN(C(=O)Cn2c(=O)sc3ccc(Cl)cc32)CC1 = 0 (no)
